Reference source: the supplement of paper PMC10567573

B1: TRAF3IP2 (parent)
chain: KEHVPTWLQNTHVYSWPKNKKNIL

Variants of: B1
Assay Text: protein stability index of a GFP-peptide fusion (GPS, HEK-293T) (PSI 1-6); higher = more stable;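 note: lentivirally expressed fusions sorted by FACS into six bins by GFP to DsRed ratio, PSI derived from sequencing read proportions per bin multiplied by bin number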
Test Parameters: c terminus: a fixed tail appended
This listing pairs variants with measured protein stability index.
Assay Metric: protein stability index

• KEHVPTWLQNTHVYSWPKNYKNIL [K20Y] = 1.81
• KEHVPTWLQETHVYSWPKNKKNIL [N10E] = 2.66
• KEHVPTWHQNTHVYSWPKNKKNIL [L8H] = 2.76
• KEHVPTWLQNTHVYSWPKNKKNIN [L24N] = 3.08
• KEHVPTWLQNTHVYSRPKNKKNIL [W16R] = 3.9
• KEHVPRWLQNTHVYSWPKNKKNIL [T6R] = 2.23
• KESVPTWLQNTHVYSWPKNKKNIL [H3S] = 2.58
• KEHVPTHLQNTHVYSWPKNKKNIL [W7H] = 3.21
• KEHVPTWLQNTHVYSWPKNKLNIL [K21L] = 2.18
• KEHVPTWLQNTSVYSWPKNKKNIL [H12S] = 3.17
• KEHVPTWLQRTHVYSWPKNKKNIL [N10R] = 2.09
• KEHVPTWLQNTHVYSWEKNKKNIL [P17E] = 2.23
• KEFVPTWLQNTHVYSWPKNKKNIL [H3F] = 2.16
• KEHPPTWLQNTHVYSWPKNKKNIL [V4P] = 2.85
• KEHIPTWLQNTHVYSWPKNKKNIL [V4I] = 1.74
• VEHVPTWLQNTHVYSWPKNKKNIL [K1V] = 2.78
• KEHVPTWLQNTHVYSWPKNKKVIL [N22V] = 2.51
• KEHVPTWLLNTHVYSWPKNKKNIL [Q9L] = 2.29
• KEHVPTWLQNTHVYSWPYNKKNIL [K18Y] = 3.3
• KEHVPTWLQNTHVRSWPKNKKNIL [Y14R] = 2.73
• KEHVPTWLQNTHSYSWPKNKKNIL [V13S] = 2.75
• KEHVPTWLQNTHVWSWPKNKKNIL [Y14W] = 1.98
• KEHVPTWLQNTHVPSWPKNKKNIL [Y14P] = 2.98
• KEHVPTWLQNKHVYSWPKNKKNIL [T11K] = 2.57
• KEHVPTWLQNTHVYSWPKNKKAIL [N22A] = 2.41
• KFHVPTWLQNTHVYSWPKNKKNIL [E2F] = 1.7
• KEHVPTWLQNTHVYSWPPNKKNIL [K18P] = 3.12
• KEHVPTWLQNGHVYSWPKNKKNIL [T11G] = 2.64
• KEHVPTWLQNTHEYSWPKNKKNIL [V13E] = 2.52
• KEHVPTWLQNTHVYSWPKHKKNIL [N19H] = 2.19
• WEHVPTWLQNTHVYSWPKNKKNIL [K1W] = 1.98
• KEHVPTWLQNTHVYSWPCNKKNIL [K18C] = 2.33
• KEHVPTWLQNTHVYSWPKNKKNID [L24D] = 3.24
• KEHVATWLQNTHVYSWPKNKKNIL [P5A] = 2.66
• KEHVPTWLQNTHVYSWPKTKKNIL [N19T] = 2.01
• KEHVPTQLQNTHVYSWPKNKKNIL [W7Q] = 3.74
• KEHVPTPLQNTHVYSWPKNKKNIL [W7P] = 3.21
• KAHVPTWLQNTHVYSWPKNKKNIL [E2A] = 1.94
• KEHVPTFLQNTHVYSWPKNKKNIL [W7F] = 2.82
• KEHVPTWLQNTHVYSWPFNKKNIL [K18F] = 2.12
• KEHVMTWLQNTHVYSWPKNKKNIL [P5M] = 2.27
• KEHVPTWLQNTHVYSWQKNKKNIL [P17Q] = 2.95
• KEHVPTYLQNTHVYSWPKNKKNIL [W7Y] = 2.88
• KEHVPTWLQNTMVYSWPKNKKNIL [H12M] = 2.42
• KEHVPTWLQNTHVYLWPKNKKNIL [S15L] = 2.22
• KEHVPTWLQNTHVYSVPKNKKNIL [W16V] = 2.88
• KEHVPTWLQNTAVYSWPKNKKNIL [H12A] = 2.86
• KEHVPTWLQNTHVYSHPKNKKNIL [W16H] = 3.39
• KEHVPTWLQNTHVYSWPKNKKNYL [I23Y] = 3.55
• KEHVPTWLQNTHVYSWPKNKQNIL [K21Q] = 2.27
• KEHVPTWLNNTHVYSWPKNKKNIL [Q9N] = 3.18
• KEHVPTWLQNTHVYSWPKAKKNIL [N19A] = 2.81
• KEHVPTWLQNTHVYSWPKLKKNIL [N19L] = 1.55
• KEHVPTWLQNEHVYSWPKNKKNIL [T11E] = 2.83
• QEHVPTWLQNTHVYSWPKNKKNIL [K1Q] = 2.67
• KLHVPTWLQNTHVYSWPKNKKNIL [E2L] = 1.67
• KERVPTWLQNTHVYSWPKNKKNIL [H3R] = 2.21
• KEHVPTWLQNTHVYSWPKCKKNIL [N19C] = 2.98
• KEHVPTWLQNTHVYQWPKNKKNIL [S15Q] = 2.49
• AEHVPTWLQNTHVYSWPKNKKNIL [K1A] = 3.11
• TEHVPTWLQNTHVYSWPKNKKNIL [K1T] = 2.71
• KEHVHTWLQNTHVYSWPKNKKNIL [P5H] = 2.06
• KEHVPTWLQNTHPYSWPKNKKNIL [V13P] = 3.07
• KEHVPTWLQNTHVYSWPKNHKNIL [K20H] = 2.21
• KEHVPTWLQQTHVYSWPKNKKNIL [N10Q] = 2.32
• KEHVPTALQNTHVYSWPKNKKNIL [W7A] = 3.39
• KEHVPTWLQNTHVYSWPKNKFNIL [K21F] = 1.8
• KEHVPTWLQVTHVYSWPKNKKNIL [N10V] = 2.85
• KEHVPTWLQNTHVYSWPKNKKNVL [I23V] = 3.07
• KEHVPTWLQNTHVYSWPENKKNIL [K18E] = 2.88
• KEHVPTWLQNTHVYRWPKNKKNIL [S15R] = 3.12
• KYHVPTWLQNTHVYSWPKNKKNIL [E2Y] = 2.07
• KEHVPTWLQNTHAYSWPKNKKNIL [V13A] = 2.5
• KEHVPTWLQNTHVYSWPKWKKNIL [N19W] = 1.4
• KWHVPTWLQNTHVYSWPKNKKNIL [E2W] = 1.57
• KEHVPTWLQNTHYYSWPKNKKNIL [V13Y] = 2.62
• KEHTPTWLQNTHVYSWPKNKKNIL [V4T] = 3.87
• KEHVPTWLQNTHVYSWPKNKKNEL [I23E] = 3.54
• KEHVPTTLQNTHVYSWPKNKKNIL [W7T] = 3.84
